I'd appreciate it if you could supply log10(koff) values for the items below.
Molecular target: T1, cynomolgus (Macaca fascicularis) ST2L extracellular domain with C-terminal His6 tag (Macaca fascicularis (cynomolgus), UniProt Q01638 19-321 (human entry))
T1 construct: also called cyno ST2L-ECD; cynoST2L-ECD
T1 chain: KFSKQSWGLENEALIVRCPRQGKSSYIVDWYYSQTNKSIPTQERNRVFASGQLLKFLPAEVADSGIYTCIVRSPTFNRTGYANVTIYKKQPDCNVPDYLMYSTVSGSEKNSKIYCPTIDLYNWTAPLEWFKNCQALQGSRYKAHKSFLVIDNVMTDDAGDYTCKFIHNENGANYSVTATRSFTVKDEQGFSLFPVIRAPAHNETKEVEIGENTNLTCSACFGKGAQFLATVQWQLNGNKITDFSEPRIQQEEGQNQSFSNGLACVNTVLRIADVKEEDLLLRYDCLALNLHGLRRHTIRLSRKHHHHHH
Experiment: SPR, mAb captured, ST2L-ECD in solution
// do not treat as linear: log10 of koff, unit s⁻¹

Solved entries (count: 3):
binder	measured property	val
STLM217 (antibody, V domains shown, frameworks VH3-23 / Vk-L6) VH: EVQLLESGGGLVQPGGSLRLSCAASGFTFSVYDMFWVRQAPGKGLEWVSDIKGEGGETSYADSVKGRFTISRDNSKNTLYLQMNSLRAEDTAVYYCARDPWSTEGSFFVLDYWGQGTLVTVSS VL: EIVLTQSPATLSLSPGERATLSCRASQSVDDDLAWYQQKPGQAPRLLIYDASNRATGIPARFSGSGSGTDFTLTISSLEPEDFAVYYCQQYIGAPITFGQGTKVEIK	log10(koff)	-3.86
STLM213 (antibody, V domains shown, frameworks VH3-23 / Vk-L6) VH: EVQLLESGGGLVQPGGSLRLSCAASGFTFSFYDMIWVRQAPGKGLEWVSTIRGEGGDTNYADSVKGRFTISRDNSKNTLYLQMNSLRAEDTAVYYCARDPWSTEGSFFVLDYWGQGTLVTVSS VL: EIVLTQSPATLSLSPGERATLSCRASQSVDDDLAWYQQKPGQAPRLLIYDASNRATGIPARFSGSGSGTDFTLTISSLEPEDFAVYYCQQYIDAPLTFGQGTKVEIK	log10(koff)	-3.91
STLM214 (antibody, V domains shown, frameworks VH3-23 / Vk-L6) VH: EVQLLESGGGLVQPGGSLRLSCAASGFTFSSYDMFWVRQAPGKGLEWVSDIKGEGGRTAYADSVKGRFTISRDNSKNTLYLQMNSLRAEDTAVYYCARDPWSTEGSFFVLDYWGQGTLVTVSS VL: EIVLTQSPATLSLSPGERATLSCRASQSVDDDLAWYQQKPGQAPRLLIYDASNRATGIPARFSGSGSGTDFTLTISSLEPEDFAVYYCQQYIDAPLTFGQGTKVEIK	log10(koff)	-3.58

Look up log10(koff) for the entries below, preserving their order.
1. STLM220 (antibody, V domains shown, frameworks VH3-23 / Vk-L6) VH: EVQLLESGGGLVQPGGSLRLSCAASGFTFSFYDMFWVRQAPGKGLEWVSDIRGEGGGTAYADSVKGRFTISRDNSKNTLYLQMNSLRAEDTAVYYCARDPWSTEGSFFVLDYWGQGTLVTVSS VL: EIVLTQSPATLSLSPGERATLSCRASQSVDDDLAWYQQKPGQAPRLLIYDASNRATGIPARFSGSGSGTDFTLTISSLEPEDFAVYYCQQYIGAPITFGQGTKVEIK
2. STLM227 (antibody, V domains shown, VH STLH201 + VL STLL277) VH: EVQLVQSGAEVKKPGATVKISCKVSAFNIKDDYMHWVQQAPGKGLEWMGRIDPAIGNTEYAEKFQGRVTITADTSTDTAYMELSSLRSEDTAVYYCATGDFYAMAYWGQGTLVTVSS VL: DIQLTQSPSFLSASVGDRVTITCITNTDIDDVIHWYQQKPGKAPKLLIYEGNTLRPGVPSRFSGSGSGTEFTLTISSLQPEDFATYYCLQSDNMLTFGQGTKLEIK

# output
-3.85
-1.53

The measurements presented in this section are drawn from patent US20170066831A1.
